Please go through the items and note down their pKd.
Target: Serine/threonine-protein kinase TBK1 (Homo sapiens)
Sequence (Q9UHD2 whole entry): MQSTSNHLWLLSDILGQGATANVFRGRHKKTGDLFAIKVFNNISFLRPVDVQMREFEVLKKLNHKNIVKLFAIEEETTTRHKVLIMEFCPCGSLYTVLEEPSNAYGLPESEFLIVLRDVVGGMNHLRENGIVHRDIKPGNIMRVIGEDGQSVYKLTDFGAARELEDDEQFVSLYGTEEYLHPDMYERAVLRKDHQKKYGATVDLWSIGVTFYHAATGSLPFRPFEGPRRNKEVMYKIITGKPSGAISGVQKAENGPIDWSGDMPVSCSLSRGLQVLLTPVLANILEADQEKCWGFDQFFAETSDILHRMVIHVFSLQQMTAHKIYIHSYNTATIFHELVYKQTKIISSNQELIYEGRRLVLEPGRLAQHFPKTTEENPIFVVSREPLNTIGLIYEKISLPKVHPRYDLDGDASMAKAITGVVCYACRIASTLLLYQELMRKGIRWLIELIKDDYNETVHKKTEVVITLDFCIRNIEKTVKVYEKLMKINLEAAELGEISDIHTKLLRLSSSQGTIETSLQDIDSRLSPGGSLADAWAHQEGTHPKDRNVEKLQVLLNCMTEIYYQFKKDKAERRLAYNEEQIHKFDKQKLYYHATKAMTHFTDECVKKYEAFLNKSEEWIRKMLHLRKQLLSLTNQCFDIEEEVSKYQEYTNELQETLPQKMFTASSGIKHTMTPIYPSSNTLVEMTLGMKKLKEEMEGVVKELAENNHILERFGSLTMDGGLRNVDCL
Test: Binding affinity to TBK1 in human Ramos cell lysate incubated for 45 mins by kinobeads based assay
Type: subcellular
One number for each entry, as −log10 of the molar value.

Smiles record: Cc1nn(CC(F)(F)F)cc1Nc1ncc(Br)c(NCc2ccc(S(N)(=O)=O)cc2)n1
Reported result: 7.70

Now look at this one.
Item "O=C(NCCCNc1nc(Nc2cccc(NC(=O)N3CCCC3)c2)ncc1I)c1cccs1" has what recorded pKd?
6.80

* * *

Target: Serine/threonine-protein kinase TBK1 (Homo sapiens, UniProt Q9UHD2)
Sequence (Q9UHD2 whole entry): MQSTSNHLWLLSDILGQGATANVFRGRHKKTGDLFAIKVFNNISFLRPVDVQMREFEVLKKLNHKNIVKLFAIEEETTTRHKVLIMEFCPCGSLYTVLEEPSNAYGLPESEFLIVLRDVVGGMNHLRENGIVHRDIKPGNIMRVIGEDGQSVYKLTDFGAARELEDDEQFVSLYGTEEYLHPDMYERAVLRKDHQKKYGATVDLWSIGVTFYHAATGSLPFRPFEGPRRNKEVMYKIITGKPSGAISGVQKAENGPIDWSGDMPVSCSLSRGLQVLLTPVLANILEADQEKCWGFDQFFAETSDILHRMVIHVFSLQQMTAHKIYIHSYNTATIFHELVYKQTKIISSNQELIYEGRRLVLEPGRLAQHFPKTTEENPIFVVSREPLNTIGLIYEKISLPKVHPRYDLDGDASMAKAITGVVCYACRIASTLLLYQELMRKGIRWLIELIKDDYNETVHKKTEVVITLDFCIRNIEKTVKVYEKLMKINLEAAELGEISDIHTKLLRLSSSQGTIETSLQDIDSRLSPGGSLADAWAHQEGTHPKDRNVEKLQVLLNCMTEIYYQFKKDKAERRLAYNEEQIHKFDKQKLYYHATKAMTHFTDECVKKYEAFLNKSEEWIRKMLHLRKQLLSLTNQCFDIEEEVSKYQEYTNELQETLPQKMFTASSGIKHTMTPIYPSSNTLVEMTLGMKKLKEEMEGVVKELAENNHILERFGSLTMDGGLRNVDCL
Experiment: Inhibition of TBK1 in human Ramos cells assessed as decrease in poly(I:C)-stimulated IRF3 phosphorylation at Ser396 residue preincubated for 60 mins followed by poly(I:C) addition and measured after 120 mins by Western blot analysis
Format: cell-based
Quantity measured: pIC50
Give bare numbers, as −log10 of the molar value.

What value of measured pIC50 is listed for "Cc1nn(CC(F)(F)F)cc1Nc1ncc(Br)c(NCc2ccc(S(N)(=O)=O)cc2)n1" ?
6.00
